Give measured Kd for each item. Keep answers brief.
Target: T1, soluble H-2K^b (K^bsol), empty heterodimer of truncated K^b heavy chain and murine β-2 microglobulin (murine), P01901
T1 chain 1: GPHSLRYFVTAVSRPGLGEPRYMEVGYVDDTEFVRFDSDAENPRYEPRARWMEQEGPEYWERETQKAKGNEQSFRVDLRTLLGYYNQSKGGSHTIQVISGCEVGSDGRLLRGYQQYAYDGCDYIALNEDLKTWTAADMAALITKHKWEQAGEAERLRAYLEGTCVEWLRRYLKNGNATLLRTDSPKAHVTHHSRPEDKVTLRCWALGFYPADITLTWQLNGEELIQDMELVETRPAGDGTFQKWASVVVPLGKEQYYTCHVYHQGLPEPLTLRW
T1 chain 2: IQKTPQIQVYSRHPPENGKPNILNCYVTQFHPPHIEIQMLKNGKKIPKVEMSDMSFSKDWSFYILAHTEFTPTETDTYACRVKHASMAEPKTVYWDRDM
Provide the reading as a plain figure in nM.

The measured Kd associated with EQLESIINFEKLTEWTSSNVMEER (modifications not checked) [OVA-24 peptide] reads 71000

The measured Kd associated with SIINFEKLT (modifications not checked) [OVA-9C peptide] reads 11

The measured Kd associated with SIINFEKL (modifications not checked) [OVA-8 peptide (ovalbumin 257-264)] reads 4.1

The measured Kd associated with SIINFEKLTE (modifications not checked) [OVA-10C peptide] reads 14

The measured Kd associated with LESIINFEKL (modifications not checked) [OVA-10N peptide] reads 280
